FYI, the data here is from patent US20100190788A1.

- experimental-system: human ROCKα/ROCKII mix (Homo sapiens, UniProt O75116)
- Construct: purchased Upstate Biotechnology 14-451
- Sequence (O75116 whole entry): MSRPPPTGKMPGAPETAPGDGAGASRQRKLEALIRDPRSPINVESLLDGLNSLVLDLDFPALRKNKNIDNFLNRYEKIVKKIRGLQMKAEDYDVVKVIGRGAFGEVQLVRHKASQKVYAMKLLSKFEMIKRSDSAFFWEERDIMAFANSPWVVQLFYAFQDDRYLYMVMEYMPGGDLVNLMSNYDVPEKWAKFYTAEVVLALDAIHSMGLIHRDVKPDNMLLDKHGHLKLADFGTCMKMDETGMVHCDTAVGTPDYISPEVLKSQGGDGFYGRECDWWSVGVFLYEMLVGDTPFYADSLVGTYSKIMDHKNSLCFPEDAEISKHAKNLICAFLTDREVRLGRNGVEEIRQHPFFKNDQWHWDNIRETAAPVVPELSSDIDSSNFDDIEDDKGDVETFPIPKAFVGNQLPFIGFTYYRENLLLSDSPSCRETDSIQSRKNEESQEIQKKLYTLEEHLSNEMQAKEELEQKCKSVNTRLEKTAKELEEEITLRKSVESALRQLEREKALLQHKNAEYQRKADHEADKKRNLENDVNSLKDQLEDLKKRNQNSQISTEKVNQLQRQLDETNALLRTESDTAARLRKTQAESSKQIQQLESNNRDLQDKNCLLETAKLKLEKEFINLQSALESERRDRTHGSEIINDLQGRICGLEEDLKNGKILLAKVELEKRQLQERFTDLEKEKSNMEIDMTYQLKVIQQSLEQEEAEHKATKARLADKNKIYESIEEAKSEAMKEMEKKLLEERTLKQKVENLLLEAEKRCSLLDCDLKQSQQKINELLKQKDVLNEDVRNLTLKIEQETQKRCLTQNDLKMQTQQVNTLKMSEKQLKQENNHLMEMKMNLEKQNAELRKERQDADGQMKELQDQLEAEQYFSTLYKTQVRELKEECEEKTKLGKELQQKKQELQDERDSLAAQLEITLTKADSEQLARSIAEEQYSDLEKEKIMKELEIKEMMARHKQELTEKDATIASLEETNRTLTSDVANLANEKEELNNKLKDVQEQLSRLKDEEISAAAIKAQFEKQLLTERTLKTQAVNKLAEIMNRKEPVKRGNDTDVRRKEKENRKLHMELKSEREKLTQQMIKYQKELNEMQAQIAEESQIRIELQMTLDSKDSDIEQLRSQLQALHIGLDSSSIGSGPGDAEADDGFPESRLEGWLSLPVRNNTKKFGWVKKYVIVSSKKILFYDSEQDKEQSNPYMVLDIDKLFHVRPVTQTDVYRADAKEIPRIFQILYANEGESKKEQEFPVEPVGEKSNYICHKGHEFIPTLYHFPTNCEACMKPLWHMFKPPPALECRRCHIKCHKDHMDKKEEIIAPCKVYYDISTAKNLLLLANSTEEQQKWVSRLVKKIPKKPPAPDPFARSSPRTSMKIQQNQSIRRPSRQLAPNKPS
- test-method-notes: ROCK inhibition, fluorescence polarization (FP) assay with ROCK IMAP Kit
- Assay type: biochemical
- test-context: Table 1, compounds of Formula IV20
measured-endpoint: IC50

Example entries and their recorded answers appear below.
input: Return IC50 for the following compound: NC(C(=O)NCCN1CCOCC1)c1ccc(C(=O)Nc2ccncc2)cc1 (stereo not drawn) [Compound 45]
output: 0.5 to 5 µM

input: For NC(C(=O)N1CCC(c2nc3ccccc3o2)CC1)c1ccc(C(=O)Nc2ccncc2)cc1 (stereo not drawn) [Compound 30] , write its IC50.
output: < 0.5 µM

input: Give me measured IC50, please, for this compound: NC(C(=O)NC1Cc2ccccc2C1)c1ccc(C(=O)Nc2ccncc2)cc1 (stereo not drawn) [Compound 15]
output: < 0.5 µM

input: Give IC50 for COc1ccccc1CNC(=O)C(N)c1ccc(C(=O)Nc2ccncc2)cc1 (stereo not drawn) [Compound 9]
output: < 0.5 µM

input: Look up IC50 of NC(C(=O)N1CCC(c2ccccc2)CC1)c1ccc(C(=O)Nc2ccncc2)cc1 (stereo not drawn) [Compound 28] and report it.
output: 0.5 to 5 µM

input: Tell me IC50 reported for NC(C(=O)N1CCCC(CO)C1)c1ccc(C(=O)Nc2ccncc2)cc1 (stereo not drawn) [Compound 36]
output: 0.5 to 5 µM

input: For the compound NC(C(=O)N1CCOCC1)c1ccc(C(=O)Nc2ccncc2)cc1 (stereo not drawn) [Compound 34] , give its measured IC50 value.
output: < 0.5 µM

input: Return reported IC50. Input compound: Cc1ccc(CN2CCC(NC(=O)C(N)c3ccc(C(=O)Nc4ccncc4)cc3)CC2)s1 (stereo not drawn) [Compound 53]
output: 0.5 to 5 µM

New cases:
input: Please look at this compound and report its IC50: NC(C(=O)NCCn1ccnc1)c1ccc(C(=O)Nc2ccncc2)cc1 (stereo not drawn) [Compound 19]
output: 0.5 to 5 µM

###

- experimental-system: human ROCKα/ROCKII mix (Homo sapiens, UniProt O75116)
- Construct: purchased Upstate Biotechnology 14-451
- test-method-notes: ROCK inhibition, fluorescence polarization (FP) assay with ROCK IMAP Kit
- Assay type: biochemical
- test-context: Table 4, compounds 132 to 156
measured-endpoint: IC50

input: Using known records, supply IC50 for N[C@H](CC(=O)N1CCC[C@H]1c1cccc(F)c1)c1ccc(C(=O)Nc2ccncc2)cc1
output: < 0.5 µM

input: Consider the compound CN(CC(N)c1ccc(C(=O)Nc2ccncc2)cc1)S(=O)(=O)c1ccccc1F (centres unmarked) and give its recorded IC50.
output: 0.5 to 5 µM

input: Given the compound COc1ccc(S(=O)(=O)N(C)C[C@@H](N)c2ccc(C(=O)Nc3ccncc3)cc2)cc1 , write its reported IC50.
output: < 0.5 µM

input: Please report IC50 for the following compound: NC(c1ccc(C(=O)Nc2ccncc2)cc1)C1CCCN1S(=O)(=O)c1ccccc1F (centres unmarked)
output: 0.5 to 5 µM

input: Tell me IC50 reported for NC(c1ccc(C(=O)Nc2ccncc2)cc1)C1CCCN1S(=O)(=O)c1cccc(Cl)c1 (centres unmarked)
output: 0.5 to 5 µM

input: Please indicate IC50 recorded for N[C@@H](CC(=O)N1CCC[C@H]1c1cccc(F)c1)c1ccc(C(=O)Nc2ccncc2)cc1
output: < 0.5 µM

---
input: Determine its reported IC50: COc1ccc(S(=O)(=O)N2CCCC2C(N)c2ccc(C(=O)Nc3ccncc3)cc2)cc1 (centres unmarked)
output: 0.5 to 5 µM

input: // fetch IC50 given entry N[C@@H](C(=O)NCc1ccccc1)c1ccc(C(=O)Nc2ccncc2)cc1
output: 0.5 to 5 µM

input: Look up and report measured IC50 for this entry: CN(CC(N)c1ccc(C(=O)Nc2ccncc2)cc1)S(=O)(=O)c1cccc(F)c1 (centres unmarked)
output: 0.5 to 5 µM
